B1: CDC25A (parent)
chain: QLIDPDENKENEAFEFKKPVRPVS

Variants of: B1
Test protocol: protein stability index of a GFP-peptide fusion (GPS, HEK-293T) (PSI 1-6); higher = more stable;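 also: lentivirally expressed fusions sorted by FACS into six bins by GFP to DsRed ratio, PSI derived from sequencing read proportions per bin multiplied by bin number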
Applied conditions: c terminus: a fixed tail appended
Readout type: protein stability index
// no unit, no text: just the number

Given the variant QLIDPDENKENEAFRFKKPVRPVS [E15R] , what is its reported protein stability index?
2.37

Same thing, different variant: QLIDPDENKENEAMEFKKPVRPVS [F14M]
3.8

Same thing, different variant: QLIDPDENKENEAFEFKKPVRPVA [S24A]
4.16

Same thing, different variant: QLIDPQENKENEAFEFKKPVRPVS [D6Q]
4.6

Same thing, different variant: ELIDPDENKENEAFEFKKPVRPVS [Q1E]
4.56

Same thing, different variant: QLIDPDENCENEAFEFKKPVRPVS [K9C]
4.54

Same thing, different variant: QLIDPDPNKENEAFEFKKPVRPVS [E7P]
4.68

Same thing, different variant: QLIDPDENKSNEAFEFKKPVRPVS [E10S]
4.2

Same thing, different variant: QLIDPDENKENEAFEFKKWVRPVS [P19W]
3.87

Same thing, different variant: QLIDPDENKENEAFEFKYPVRPVS [K18Y]
4

Same thing, different variant: QLIDPDENKENQAFEFKKPVRPVS [E12Q]
3.85

Same thing, different variant: QLIDPHENKENEAFEFKKPVRPVS [D6H]
3.94

Same thing, different variant: QLIDPDENKENEAFEFKKPVRPHS [V23H]
4.05

Same thing, different variant: QLIDPDENKPNEAFEFKKPVRPVS [E10P]
3.1

Same thing, different variant: QLIEPDENKENEAFEFKKPVRPVS [D4E]
3.99

Same thing, different variant: QLIDPDENKENEKFEFKKPVRPVS [A13K]
3.63

Same thing, different variant: QLIDPDENKENGAFEFKKPVRPVS [E12G]
4.61

Same thing, different variant: QLIDPDENKENEAFEFKSPVRPVS [K18S]
4.55

Same thing, different variant: QLIDPDENKENEAFEFKKPVRPVP [S24P]
4.33

Same thing, different variant: QLIDPDENKENENFEFKKPVRPVS [A13N]
3.77

Same thing, different variant: QLIDPDENKENEAFEFKKPVRCVS [P22C]
4.98

Same thing, different variant: QLIDPDENKENEAFEFKKPVRPNS [V23N]
3.51
